- study target: HCoV-NL63 Mpro (Human coronavirus NL63, UniProt P0C6X5)
- Sequence (P0C6X5 2940-3242 limits assumed): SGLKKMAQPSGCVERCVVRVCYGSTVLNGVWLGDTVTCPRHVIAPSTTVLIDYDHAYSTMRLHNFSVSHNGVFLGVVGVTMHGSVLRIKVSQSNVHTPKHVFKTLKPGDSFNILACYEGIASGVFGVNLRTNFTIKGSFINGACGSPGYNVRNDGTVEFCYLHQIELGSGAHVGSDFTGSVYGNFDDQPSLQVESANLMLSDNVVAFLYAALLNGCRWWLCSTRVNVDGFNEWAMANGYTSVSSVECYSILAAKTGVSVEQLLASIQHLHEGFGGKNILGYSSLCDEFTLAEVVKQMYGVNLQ
- test details: HCoV-NL63 Mpro enzymatic inhibition assay (fluorescence)
- Type: biochemical
experimental endpoint: log10 of IC50 (log10 of the value in nM)
A difference of one corresponds to tenfold IC50; all values are log10 with IC50 in nM.

So what's the measured log10 of IC50 for this one? Cc1cc(Cl)cc2cc(C(=O)N3C[C@H]4[C@@H]([C@H]3C(=O)N[C@H](C=O)C[C@@H]3CCNC3=O)C4(C)C)[nH]c12 1.91

Another: O=C[C@H](C[C@@H]1CCNC1=O)NC(=O)[C@@H]1CCCN1C(=O)c1cc2ccccc2[nH]1 2.62

Lookup CC1(C)[C@@H]2[C@@H](C(=O)N[C@H](C=O)C[C@@H]3CCNC3=O)N(C(=O)c3cc4c(F)cccc4[nH]3)C[C@@H]21 1.65

Also, CC1(C)[C@@H]2[C@@H](C(=O)N[C@H](C=O)C[C@@H]3CCNC3=O)N(C(=O)c3[nH]c4ccccc4c3-c3ccccc3)C[C@@H]21 please. 3.01

Another compound to check: CC1(C)[C@@H]2[C@@H](C(=O)N[C@H](C=O)C[C@@H]3CCNC3=O)N(C(=O)CC3CCCCC3)C[C@@H]21 1.82

Entry CC1(C)C[C@@H](C(=O)N[C@H](C=O)C[C@@H]2CCNC2=O)N(C(=O)c2cc3cccc(Cl)c3[nH]2)C1 please 1.72

Quick one: O=C[C@H](C[C@@H]1CCNC1=O)NC(=O)[C@@H]1CC2(CC2)CN1C(=O)CC1CCCCC1 1.99

Moving on to the next compound: CC1(C)[C@@H]2[C@@H](C(=O)N[C@H](C=O)C[C@@H]3CCNC3=O)N(C(=O)c3cc4c(F)ccc(Cl)c4[nH]3)C[C@@H]21 1.76

Follow-up item: CC1(C)[C@@H]2[C@@H](C(=O)N[C@H](C=O)C[C@@H]3CCNC3=O)N(C(=O)c3cc4cc5c(cc4[nH]3)OCO5)C[C@@H]21 1.92

Cn1c(C(=O)N2C[C@H]3[C@@H]([C@H]2C(=O)N[C@H](C=O)C[C@@H]2CCNC2=O)C3(C)C)cc2cc(Cl)ccc21 , same question. 2.31

Same lookup for O=C[C@H](C[C@@H]1CCNC1=O)NC(=O)[C@@H]1CC2(CCC2)CN1C(=O)C1(c2ccccc2)CC1 , please. 2.27

How about CC1(C)[C@@H]2[C@@H](C(=O)N[C@H](C=O)C[C@@H]3CCNC3=O)N(C(=O)CC3CCOCC3)C[C@@H]21 ? 1.90

Also check CC1(C)[C@@H]2[C@@H](C(=O)N[C@H](C#N)C[C@@H]3CCNC3=O)N(C(=O)c3cc4c(F)ccc(Cl)c4[nH]3)C[C@@H]21 3.60

Try O=C[C@H](C[C@@H]1CCNC1=O)NC(=O)[C@@H]1CC2(CC2)CN1C(=O)c1cc2ccccc2[nH]1 next. 1.68

Same for CC(C)(C)CC(=O)N1C[C@H]2[C@@H]([C@H]1C(=O)N[C@H](C=O)C[C@@H]1CCNC1=O)C2(C)C 2.28

What do we get for CC(C)c1ccc(F)c2[nH]c(C(=O)N3C[C@H]4[C@@H]([C@H]3C(=O)N[C@H](C=O)C[C@@H]3CCNC3=O)C4(C)C)cc12 ? 1.60

Another compound: Cc1ccc2[nH]c(C(=O)N3C[C@H]4[C@@H]([C@H]3C(=O)N[C@H](C=O)C[C@@H]3CCNC3=O)C4(C)C)cc2c1 1.73

Query Cn1c(C(=O)N2C[C@H]3[C@@H]([C@H]2C(=O)N[C@H](C=O)C[C@@H]2CCNC2=O)C3(C)C)cc2c(F)cccc21 next 2.60

Also, C[C@H](C(=O)N1C[C@H]2[C@@H]([C@H]1C(=O)N[C@H](C=O)C[C@@H]1CCNC1=O)C2(C)C)c1ccccc1 please. 2.94

What about this compound? C[C@@H]1C[C@@H](C(=O)N[C@H](C=O)C[C@@H]2CCNC2=O)N(C(=O)c2cc3ccccc3[nH]2)C1 1.79

// query: Cc1ccc(F)c2[nH]c(C(=O)N3C[C@H]4[C@@H]([C@H]3C(=O)N[C@H](C=O)C[C@@H]3CCNC3=O)C4(C)C)cc12 2.00

Then what about the compound COc1cccc2cc(C(=O)N3C[C@H]4[C@@H]([C@H]3C(=O)N[C@H](C=O)C[C@@H]3CCNC3=O)C4(C)C)[nH]c12 ? 2.33

// next record CC1(C)[C@@H]2[C@@H](C(=O)N[C@H](C=O)C[C@@H]3CCCNC3=O)N(C(=O)c3cc4cccc(Cl)c4[nH]3)C[C@@H]21 1.73

Same lookup for O=C[C@H](C[C@@H]1CCNC1=O)NC(=O)[C@@H]1C[C@@H](F)CN1C(=O)c1cc2ccccc2[nH]1 , please. 2.02

Now this one: COc1ccc(F)c2[nH]c(C(=O)N3C[C@H]4[C@@H]([C@H]3C(=O)N[C@H](C=O)C[C@@H]3CCNC3=O)C4(C)C)cc12 1.71
